# tgt: T1, full-length beta-catenin (UniProt P35222 2-781, limits assumed)
# T1 construct: mature; also called full-length ß-Catenin; β-catenin
# T1 sequence (looked up): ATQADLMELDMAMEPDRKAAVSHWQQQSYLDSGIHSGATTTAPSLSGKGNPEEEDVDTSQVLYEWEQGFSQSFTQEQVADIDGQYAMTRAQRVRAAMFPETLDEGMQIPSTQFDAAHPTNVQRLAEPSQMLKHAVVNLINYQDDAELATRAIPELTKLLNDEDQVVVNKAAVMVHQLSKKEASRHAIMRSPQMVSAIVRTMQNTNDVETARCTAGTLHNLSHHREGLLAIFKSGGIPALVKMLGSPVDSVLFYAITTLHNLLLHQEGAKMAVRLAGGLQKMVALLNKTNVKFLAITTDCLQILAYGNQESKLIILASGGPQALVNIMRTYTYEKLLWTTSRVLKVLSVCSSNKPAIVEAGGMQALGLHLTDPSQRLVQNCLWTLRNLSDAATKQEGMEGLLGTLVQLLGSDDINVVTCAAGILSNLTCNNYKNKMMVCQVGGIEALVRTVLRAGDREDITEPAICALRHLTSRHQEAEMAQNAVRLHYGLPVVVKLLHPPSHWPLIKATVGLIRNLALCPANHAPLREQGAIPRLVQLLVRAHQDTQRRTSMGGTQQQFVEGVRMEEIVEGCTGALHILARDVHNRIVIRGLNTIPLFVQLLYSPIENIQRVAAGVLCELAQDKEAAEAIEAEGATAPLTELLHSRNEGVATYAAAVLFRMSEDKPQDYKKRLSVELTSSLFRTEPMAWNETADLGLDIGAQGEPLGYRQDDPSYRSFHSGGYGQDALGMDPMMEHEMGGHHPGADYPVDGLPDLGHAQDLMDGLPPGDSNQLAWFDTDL
# assayExplanation: competition FP; NB = no binding detected
Numbered stars: 1 amine (or outer) side, 2 acyl side, 3 side chain; on linkers, the order of the positions; unused ones are H or OH. Bridge positions count the residues as written; N and C are the ends. Square brackets hold non-standard residues; d marks the D form. Primed or numbered codes have the meaning given here. MB(4) = Monomer B (PyrS), N-Alloc pyrrolidine stapling residue, (S)-3-amino-1-(allyloxycarbonyl)pyrrolidine-3-carboxylic acid, C=CCOC(=O)N1CC[C@@](N[*:1])(C(=O)[*:2])C1; MB(8) = Monomer B (PyrS), pyrrolidine stapling residue bearing N-allyl carbamate (Alloc), forms carbamate staple with R8 by ring-closing olefin metathesis, i to i+7; MB(5) = Monomer B (PyrS), N-Alloc pyrrolidine stapling residue; Phe(4-F) = N[C@@H](Cc1ccc(F)cc1)C(=O)O; 2Pal = N[C@@H](Cc1ccccn1)C(=O)O; R8 = C=CCCCCCC[C@@](C)(N)C(=O)O

binder	binding result
Ac-A[R8]ILDA[2Pal]I[MB(5)][2Pal]VW-NH2 (staple 2-9; not fully specified; printed as Ac-A-R8-I-L-D-A-2pyr-I-MB-2pyr-V-W-NH2) [FP0572c Isomer 1]	no binding
Ac-A[R8]ILDA[2Pal]I[MB(8)]TVW-NH2 (staple 2-9; not fully specified; printed as Ac-A-R8-I-L-D-A-2pyr-I-MB-T-V-W-NH2) [FP0561c Isomer 2]	no binding
Ac-A[R8]ILDA[2Pal]I[MB(4)][Phe(4-F)]VW-NH2 (staple 2-9; not fully specified; printed as Ac-A-R8-I-L-D-A-2pyr-I-MB-4FF-V-W-NH2) [FP0576c Isomer 2]	no binding
Ac-A[R8]ILDA[2Pal]I[MB(8)]TVW-NH2 (staple 2-9; not fully specified; printed as Ac-A-R8-I-L-D-A-2pyr-I-MB-T-V-W-NH2) [FP0561c Isomer 1]	no binding

Origin of the recorded values: patent US11198713B2
